tested on: CEM cells HIV-1 protection, formazan growth assay; experiment: NCI AIDS Antiviral Assay;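 active means compounds giving half or more protection of infected cells from virus-caused growth loss, again on retest; inactive means the rest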
Lab note: assign the record to one of active, inactive

Worked examples follow.
>>> label_value("CN(C)CCNC(=O)c1cc([N+](=O)[O-])cc2c1Oc1ccccc1O2")
"inactive"
>>> label_value("CC(C)n1c(=O)[nH]n(-c2ccccc2)c1=O")
"inactive"
>>> label_value("Cc1nc2ccc(S(=O)(=O)Nc3nccs3)cc2c(=O)n1NS(=O)(=O)c1nccs1")
"inactive"
>>> label_value("C/C(=N/N)c1ccc2[nH]c3c(C)cc([N+](=O)[O-])c(C)c3c2c1")
"inactive"
>>> label_value("CSc1cc(-c2ccccn2)nc(-c2ccccn2)c1.CSc1cc(-c2ccccn2)nc(-c2ccccn2)c1.[Ni+2].[O-][Cl+3]([O-])([O-])[O-]")
"inactive"

Q: State the result this test recorded for CCOP(=O)(OCC)/C(C#N)=C/c1ccc(CO)o1 .
Ans: inactive

Q: Same question, COc1ccc(OC)c2cc(Cc3ccc(N(C)C)cc3)c(=O)c(Cc3ccc(N(C)C)cc3)cc12 this time
Ans: inactive

Q: Would you mind doing Cc1ccc(C(=O)OC[C@H]2CC[C@@H](n3cc(N(C)C4CCCCC4)c(=O)[nH]c3=O)O2)cc1 as well?
Ans: inactive

Q: Please answer likewise for Nc1ccc(S(=O)(=O)O)cc1[N+](=O)[O-]
Ans: inactive

---

Parameter pEC50: see the listing below.
tested on: CEM cells HIV-1 protection, formazan growth assay; experiment: NCI AIDS Antiviral Assay
pEC50: −log10 of the molar value. Where a SMILES comes first, the peptide text is derived from it. The star is where a group is joined. Myristoyl = CCCCCCCCCCCCCC(=O)*

>>> value_reported("O=C(C1OC1c1ccc(Cl)cc1)C12CC3CC(CC(C3)C1)C2 (centres undefined)")
"< 3.70"
>>> value_reported("COc1cc2c(cc1OC)/C(=C/c1ccc(N(C)C)cc1)C=C2")
"< 4.77"
>>> value_reported("CC1(N)COP(=O)(NCc2ccccc2)OC1 (centres undefined)")
"< 3.17"

Continue with the next compound.
Q: For CCCCCCCCCCCCCC(=O)NCC(=O)NC(CO)C(=O)NC(CO)C(=O)NC(CCCCN)C(=O)NC(CO)C(=O)NC(CCCCN)C(=O)N1CCCC1C(=O)NC(CCCCN)C(=O)NC(CC(=O)O)C(N)=O (centres undefined) (Myristoyl-GSSKSKPKD-NH2; configuration not given here) , what is its reported pEC50?
Ans: < 3.66

---

tested on: CEM cells HIV-1 protection, formazan growth assay; test: NCI AIDS Antiviral Assay;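 active = compounds giving half or more protection of infected cells from virus-caused growth loss, again on retest; inactive = the rest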
Lab note: assign the record to one of true (1) for active, false (0) for inactive

These recorded examples may help you get a feel for the data.
>>> label_value("CCCCCCC[CH2][Sn]1([CH2]CCCCCCC)[O]C(=O)c2cccnc2[S]1")
"false (0)"
>>> label_value("CC(=O)O[C@@H]1CCN(C(=O)C(NC(=O)OC(C)(C)C)C(C)C)[C@@H]1C(O)CC(=O)O (stereo partly specified)")
"false (0)"
>>> label_value("S=C(Nc1c2c(nc3ccccc13)CCCC2)Nc1c2c(nc3ccccc13)CCCC2")
"false (0)"
>>> label_value("CN1C(=O)C(C(C)(C)C2SC(=S)N(C)C2=O)SC1=S (stereo unspecified)")
"false (0)"
>>> label_value("CCOC(=O)/C(=C\\c1cccc(Br)c1)C(C)=O")
"false (0)"
>>> label_value("Nc1c(C(=O)N/N=C/c2ccccc2)sc(=S)n1-c1ccccc1")
"false (0)"

Q: Per the assay record, what outcome was assigned to CC1(C)O[C@]2(C)CC[C@@H]1[C@@H](O)[C@@H]2N1CCCCC1 ?
Ans: false (0)

Q: Note, next up: CN(C)c1ccc(C=C2c3ccccc3-c3ccccc32)cc1
Ans: false (0)

Q: Next: COc1c2c(c(OC)c3c1C(=O)c1ccccc1C3=O)C(=O)CCC2
Ans: false (0)

Q: Try this molecule next: COP(C)(=O)C(Cc1c[nH]c2ccccc12)NC(=O)OCc1ccccc1 (stereo unspecified)
Ans: false (0)

Q: Follow-up item: CCOC(=O)/C(=C/c1ccccc1Br)P(=O)(OCC)OCC
Ans: false (0)

Q: Now the molecule O=C(/C(=C/c1cccs1)c1ccccc1)c1ccccc1
Ans: false (0)

Q: Here is the next molecule: CON(C)c1nc(N)c(C#N)c(C#N)c1C#N
Ans: false (0)

---

tested on: CEM cells HIV-1 protection, formazan growth assay; experiment: NCI AIDS Antiviral Assay; settings: measured here: growth of uninfected CEM cells
pIC50: −log10 of the molar value.
# pIC50 per entry

>>> value_reported("O=C(NN1C(=O)CSC1c1ccco1)c1ccncc1 (stereo not drawn)")
"< 3.70"
>>> value_reported("Cc1cc(S(=O)(=O)N=C2Nc3cccc4cccc(c34)N2)c(S)cc1Cl")
3.76
>>> value_reported("Cc1nnc2n1N=C1CC(C)(C)CC(=O)C1S2 (stereo not drawn)")
"< 3.98"
>>> value_reported("Cc1ccc(S(=O)(=O)CC2(Br)Cc3ccccc3C2=O)cc1 (stereo not drawn)")
5.24
>>> value_reported("CC12CCC(C3NC(=S)NN=C31)C2(C)C (stereo not drawn)")
"< 3.52"
>>> value_reported("CCO/C=N/C1=C(C#N)C(c2ccc(Cl)cc2)c2c(-c3ccccc3)nn(-c3ccccc3)c2O1 (stereo not drawn)")
4.77

Q: Entry C=C(CN(C)C)c1ccccn1 has what pIC50?
Ans: < 3.70

Q: Another compound to check: Nc1nn2cc3c(nc2c1N=Nc1ccccc1)-c1ccccc1C3
Ans: < 3.70

Q: Would you kindly repeat that for CC(=O)N1C(=O)C(=O)c2ccccc21 ?
Ans: < 3.70

Q: What do you have for COc1ccc(C(C)NNC(=O)c2ccncc2)cc1OC (stereo not drawn) ?
Ans: 4.52

Q: Now try O=C1C(c2ccc([N+](=O)[O-])cc2)=C(Cl)C(=O)c2c(O)cccc21 .
Ans: 5.06

Q: Try this compound next: COc1ccc(-c2c(-c3ccccc3)c(C)nc3[nH]c(=S)[nH]c(=S)c23)cc1OC
Ans: 4.36

---

test system: CEM cells HIV-1 protection, formazan growth assay; assay: NCI AIDS Antiviral Assay
pEC50: −log10 of the molar value.
metric: pEC50

>>> value_reported("COc1ccc(C2SC(N)=Nc3c2c(C)nn3C(=O)c2ccncc2)cc1 (stereo unspecified)")
"< 3.70"
>>> value_reported("COc1cc(C(C)O)c[n+](CCC2CNc3ccccc32)c1 (stereo unspecified)")
"< 3.66"
>>> value_reported("COc1cc2c[n+](C)c3c4cc5c(cc4ccc3c2cc1OC)OCO5")
"< 4.75"
>>> value_reported("Cc1cc(=O)n2nc(CN3CCCCC3)sc2n1")
"< 3.70"
>>> value_reported("Cc1cc(C)c(C2CNCc3cc4c(cc32)CNCC4c2c(C)cc(C)cc2C)c(C)c1 (stereo unspecified)")
"< 4.70"

Moving on to another molecule below.
Q: Entry [N-]=[N+]=C(S(=O)(=O)O)S(=O)(=O)O : reported pEC50 = ?
Ans: < 3.70

---

system: CEM cells HIV-1 protection, formazan growth assay; experiment: NCI AIDS Antiviral Assay; settings: measured here: growth of uninfected CEM cells
*1 amine or outer side, *2 acyl side, *3 side chain or, on linkers, in order; H or OH if unused. Where a SMILES comes first, the peptide text is derived from it. Bridges are numbered along the chain shown (N, C = ends). [ ]: non-standard residue; d: D form. The star is where a group is joined. ξ: configuration not given here. γ4hArg(2R,3R-(OH)2) = N=C(N)NCCC[C@H](N[*:1])[C@@H](O)[C@@H](O)C(=O)[*:2]; Gln(3S,4R-Me2) = C[C@H]([C@H](N)C(=O)O)[C@@H](C)C(N)=O; X5 = CC(C)C[C@H](C)[C@@H](O)[C@@H](C)C(=O)*; X6 = COC(c1ccc(O)cc1)C(N[*:1])C(=O)[*:2]; NMeQ = CN[C@@H](CCC(N)=O)C(=O)O; Thr(3ξ) = CC(O)[C@H](N)C(=O)O; NMeA = CN[C@@H](C)C(=O)O
Reported IC50 values for the following compounds.
# value in µM; strip the unit string

>>> value_reported("COC(c1ccc(O)cc1)C1NC(=O)[C@H](CCC(N)=O)N(C)C(=O)[C@H](CC(C)C)NC(=O)[C@@H](CCCN=C(N)N)NC(=O)[C@H](C(C)O)NC(=O)[C@@H](NC(=O)[C@@H](NC(=O)[C@H](O)[C@H](O)[C@H](CCCN=C(N)N)NC(=O)[C@H](C)NC(=O)[C@H](C)[C@H](O)[C@@H](C)CC(C)C)[C@@H](C)[C@@H](C)C(N)=O)[C@@H](C)OC(=O)[C@H](C)N(C)C1=O (stereo partly drawn) (X5-A[γ4hArg(2R,3R-(OH)2)][Gln(3S,4R-Me2)]T[Thr(3ξ)][dR]L[NMeQ][X6][NMeA]; ester 4-C)")
0.794
>>> value_reported("Clc1cccc(-c2sc(-c3cccs3)cc2Cc2cccs2)c1")
141

Please examine the following record next.
Q: Tell me the measured IC50 of CCCCCC/C(CC(=O)CCC(=O)NCCc1ccccc1)=N\NC(=O)c1ccc2ccccc2c1O , please.
Ans: 14.5
